- targetSystem: Cellular tumor antigen p53 (Homo sapiens) (UniProt P04637)
- Sequence (P04637 whole entry, looked up): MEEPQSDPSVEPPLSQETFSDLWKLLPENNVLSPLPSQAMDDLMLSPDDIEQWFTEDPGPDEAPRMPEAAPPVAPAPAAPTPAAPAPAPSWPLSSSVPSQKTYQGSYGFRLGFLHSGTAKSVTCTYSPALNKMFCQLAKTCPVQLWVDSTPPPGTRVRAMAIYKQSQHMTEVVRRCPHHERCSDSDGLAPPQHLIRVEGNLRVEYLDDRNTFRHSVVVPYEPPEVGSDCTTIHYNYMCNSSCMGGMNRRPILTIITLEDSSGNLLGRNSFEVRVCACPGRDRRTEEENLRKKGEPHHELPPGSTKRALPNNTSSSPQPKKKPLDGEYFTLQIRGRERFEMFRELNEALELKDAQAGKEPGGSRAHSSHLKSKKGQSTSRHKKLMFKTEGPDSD
- protocolNotes: Primary qHTS for small molecule compounds that upregulate eGFP-tagged delta133p53alpha (in N-terminal) cells. (AID 2060322);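 further: cells pre-induced with doxycycline then dosed without doxycycline; series mostly up to about 56 µM; 0% = DMSO vehicle and 100% = reference activator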
- particulars: NCI-H358 eGFP-delta133p53alpha fluorescence, 24 h; stronger effect = higher value
Inconclusive results are not listed.
Provide the recorded activation for the entries that follow.
# number only, unit % dropped from output

Prompt: Bench note: what activation did COc1cc(/C=C/C(=O)OCC2OC(OC3(CO)OC(CO)C(O)C3O)C(O)C(O)C2O)ccc1O (stereo not drawn) show?
Completion: 10.7

Prompt: What do we get for O=C(O)CCCCCC(=O)NN=C1CCCC1 ?
Completion: -11

Prompt: What do we get for C[C@]12C=CC(=O)C=C1CC[C@@H]1C2=CC[C@]2(C)[C@@H](C(=O)CN3CCN(c4cc(N5CCCC5)nc(N5CCCC5)n4)CC3)CC[C@@H]12 ?
Completion: -22.1

Prompt: What do we get for COc1c(C)c2c(c(O)c1C/C=C(\C)CCC(=O)O)C(=O)OC2 ?
Completion: 7.34

Prompt: What do we get for CC(C)NCC(C(=O)N1CCN(c2ncnc3c2C(C)CC3O)CC1)c1ccc(Cl)cc1 (stereo not drawn) ?
Completion: 0.955

Prompt: What do we get for O=C(NCCc1c[nH]c2ccccc12)c1cccnc1 ?
Completion: 10.9

Prompt: What do we get for COc1cc(C/C(=C/NC(C)=O)N(CC(=O)Cc2ccccc2)C(C)=O)cc2c1OCO2 ?
Completion: -26

Prompt: What do we get for C[C@@H]1O[C@@H](O[C@H]2[C@H](O[C@H]3[C@H](O[C@H]4CC[C@@]5(C)C(CC[C@]6(C)C5CC=C5[C@@H]7CC(C)(C)C[C@@H](O)[C@]7(C)CC[C@]56C)[C@@]4(C)CO)O[C@H](C(=O)O)[C@@H](O)[C@@H]3O)O[C@H](C(=O)O)[C@H](O)[C@@H]2O)[C@H](O)[C@H](O)[C@H]1O (stereo partly drawn) ?
Completion: 6.87

Prompt: What do we get for CN1CC(=O)NC1=NC(=O)Nc1cccc(Cl)c1 ?
Completion: -20.6

Prompt: What do we get for CCc1ccc(/C=C2/SC(=S)NC2=O)cc1 ?
Completion: -0.0291

Prompt: What do we get for O=C(NNc1ccccc1)c1ccncc1 ?
Completion: -8.33

Prompt: What do we get for CCCn1cnc2c(NCc3ccccc3)nc(N[C@H](CC)CO)nc21 ?
Completion: 2.33

Prompt: What do we get for CCN1CCCC1CN (stereo not drawn) ?
Completion: 3.35

Prompt: What do we get for C=C1CC[C@@H]2[C@](C)(CO)[C@H](O)CC[C@@]2(C)[C@@H]1CC(=O)C1=CCOC1=O ?
Completion: 9.16

Prompt: What do we get for N#Cc1c(C2CCNCC2)cc(-c2c(O)cccc2OCC2CC2)nc1N ?
Completion: -1.56

Prompt: What do we get for COc1ccc(NC(=O)c2ccc(C(=N)N(C)C)cc2)c(C(=O)Nc2ccc(Cl)cn2)c1 ?
Completion: -8.59

Prompt: What do we get for CC1CCC(=O)CC(SCC(O)C(=O)O)CCC(=O)O1 (stereo not drawn) ?
Completion: -26

Prompt: What do we get for O=C(O)/C=C/c1cc2c(cc1O[C@@H]1O[C@H](CO)[C@@H](O)[C@H](O)[C@H]1O)OCO2 ?
Completion: 9.92

Prompt: What do we get for CCOC(=O)O[C@]1(C(=O)OCCl)CC[C@H]2[C@@H]3CCC4=CC(=O)C=C[C@]4(C)[C@H]3[C@@H](O)C[C@@]21C ?
Completion: -7.34

Prompt: What do we get for COc1ccc(C(=O)CC(=O)O)c2c1C=CC(C)(C)O2 ?
Completion: 23.2

Prompt: What do we get for COc1cc(C)c(C(=O)O[C@H]2[C@@H](OC(C)=O)[C@H](n3ccc(=O)[nH]c3=O)O[C@@H]2CO)c(OC)c1 ?
Completion: -10.7

Prompt: What do we get for CCc1ccc(OCc2ccccc2C(=O)Nc2ccc3nc(C)cc(N)c3c2)cc1 ?
Completion: 45.3

Prompt: What do we get for C=C1C(=O)O[C@@H]2C=C(COC(C)=O)CC/C=C(\CO)CC[C@@H]12 ?
Completion: 3.82
